- target_desc: GSPT1 (Homo sapiens, UniProt P15170+Q96SW2)
- Sequence (P15170 whole entry): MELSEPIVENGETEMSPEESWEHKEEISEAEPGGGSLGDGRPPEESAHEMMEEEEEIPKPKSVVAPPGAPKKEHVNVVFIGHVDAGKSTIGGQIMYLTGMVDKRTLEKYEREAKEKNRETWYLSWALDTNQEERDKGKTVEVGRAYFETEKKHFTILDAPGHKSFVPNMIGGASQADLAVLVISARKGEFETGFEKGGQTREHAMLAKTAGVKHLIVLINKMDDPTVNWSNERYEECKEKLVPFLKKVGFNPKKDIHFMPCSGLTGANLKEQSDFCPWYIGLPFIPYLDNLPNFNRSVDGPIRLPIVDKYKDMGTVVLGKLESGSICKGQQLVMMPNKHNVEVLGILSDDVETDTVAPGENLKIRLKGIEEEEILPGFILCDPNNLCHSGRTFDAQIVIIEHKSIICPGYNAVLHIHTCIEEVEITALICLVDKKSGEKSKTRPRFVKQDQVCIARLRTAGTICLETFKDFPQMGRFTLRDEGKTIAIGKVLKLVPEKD
- Sequence (Q96SW2 whole entry): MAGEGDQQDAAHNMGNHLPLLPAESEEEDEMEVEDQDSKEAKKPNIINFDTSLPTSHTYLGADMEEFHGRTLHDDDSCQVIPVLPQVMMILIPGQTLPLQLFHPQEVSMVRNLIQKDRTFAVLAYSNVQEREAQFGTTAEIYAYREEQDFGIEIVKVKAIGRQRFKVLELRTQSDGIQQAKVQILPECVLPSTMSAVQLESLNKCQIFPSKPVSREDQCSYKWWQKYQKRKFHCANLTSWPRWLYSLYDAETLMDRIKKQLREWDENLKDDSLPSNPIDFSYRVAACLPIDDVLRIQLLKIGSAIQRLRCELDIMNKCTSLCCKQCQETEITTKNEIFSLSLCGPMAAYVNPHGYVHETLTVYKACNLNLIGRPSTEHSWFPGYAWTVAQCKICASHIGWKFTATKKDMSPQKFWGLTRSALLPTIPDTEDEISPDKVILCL
- Sequence (Q16531 whole entry partner): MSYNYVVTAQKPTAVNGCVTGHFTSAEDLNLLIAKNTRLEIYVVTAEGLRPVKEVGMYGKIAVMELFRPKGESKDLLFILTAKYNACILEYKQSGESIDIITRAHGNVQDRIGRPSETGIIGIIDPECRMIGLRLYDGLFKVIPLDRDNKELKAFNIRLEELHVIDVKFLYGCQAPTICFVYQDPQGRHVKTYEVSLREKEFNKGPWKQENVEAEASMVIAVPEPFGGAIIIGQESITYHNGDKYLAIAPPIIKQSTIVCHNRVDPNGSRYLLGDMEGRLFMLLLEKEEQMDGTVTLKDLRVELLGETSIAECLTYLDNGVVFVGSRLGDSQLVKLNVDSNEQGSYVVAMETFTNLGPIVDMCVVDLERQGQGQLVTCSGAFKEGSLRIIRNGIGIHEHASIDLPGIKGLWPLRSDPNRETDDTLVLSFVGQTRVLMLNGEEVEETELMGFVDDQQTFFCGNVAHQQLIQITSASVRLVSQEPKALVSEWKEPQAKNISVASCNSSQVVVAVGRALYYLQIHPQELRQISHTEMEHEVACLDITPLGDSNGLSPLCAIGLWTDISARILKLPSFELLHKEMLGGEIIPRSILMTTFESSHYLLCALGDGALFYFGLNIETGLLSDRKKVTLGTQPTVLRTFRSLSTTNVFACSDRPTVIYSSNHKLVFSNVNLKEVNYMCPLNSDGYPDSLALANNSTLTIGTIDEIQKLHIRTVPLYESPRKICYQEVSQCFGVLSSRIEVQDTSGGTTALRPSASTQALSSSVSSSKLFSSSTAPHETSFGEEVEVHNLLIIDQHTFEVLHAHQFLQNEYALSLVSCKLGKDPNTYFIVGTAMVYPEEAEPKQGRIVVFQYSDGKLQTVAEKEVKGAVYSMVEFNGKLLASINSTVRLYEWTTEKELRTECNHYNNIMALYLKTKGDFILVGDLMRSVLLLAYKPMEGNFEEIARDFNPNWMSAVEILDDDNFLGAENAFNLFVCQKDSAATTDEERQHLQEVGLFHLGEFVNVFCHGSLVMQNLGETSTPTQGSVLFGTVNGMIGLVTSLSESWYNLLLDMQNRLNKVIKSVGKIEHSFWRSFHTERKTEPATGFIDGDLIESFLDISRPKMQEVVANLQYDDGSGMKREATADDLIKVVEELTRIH
- assay_comment: GSPT1 Cellular Degradation Assay (DF15-GSPT1-ePL)
- Type: cell-based
- Set-up: expressed in transfected cells
- assay_context: DF15-GSPT1-ePL cells, 20 hours

compound | Dmax, %
CC(C)COc1c(COC(=O)Nc2ccc(Oc3ccc(F)c(F)c3)cc2)ccc2c1C(=O)N(C1CCC(=O)NC1=O)C2 (stereo not shown) | 9
COc1c(COC(=O)Nc2ccc(Oc3cc(F)c(F)c(F)c3)cc2Cl)ccc2c1C(=O)N(C1CCC(=O)NC1=O)C2 (stereo not shown) | 37
COc1cc(Oc2cc(F)c(F)cc2Cl)ccc1NC(=O)OCc1ccc2c(c1OC)C(=O)N(C1CCC(=O)NC1=O)C2 (stereo not shown) | 24
O=C1CCC(N2Cc3ccc(COC(=O)Nc4ccc(Oc5cc(F)cc(F)c5)cc4F)c(O[C@@H]4CCCOC4)c3C2=O)C(=O)N1 (stereo partly shown) | 15
COc1c(COC(=O)Nc2ccc(Oc3ccc(F)cc3C)cc2F)ccc2c1C(=O)N(C1CCC(=O)NC1=O)C2 (stereo not shown) | 36
CC(C)Oc1c(COC(=O)Nc2ccc(Oc3ccccc3F)cc2)ccc2c1C(=O)N(C1CCC(=O)NC1=O)C2 (stereo not shown) | 9
COc1c(COC(=O)Nc2ccc(Oc3ccc(F)cc3Cl)cc2)ccc2c1C(=O)N(C1CCC(=O)NC1=O)C2 (stereo not shown) | 35
